# credit: patent US20260167619A2

target desc: EGFR(L858R_T790M_C797S) (aa695-end, Invitrogen) (Homo sapiens, UniProt P00533, C797S/L858R/T790M)
Sequence (P00533 695-1210 T790M/C797S/L858R): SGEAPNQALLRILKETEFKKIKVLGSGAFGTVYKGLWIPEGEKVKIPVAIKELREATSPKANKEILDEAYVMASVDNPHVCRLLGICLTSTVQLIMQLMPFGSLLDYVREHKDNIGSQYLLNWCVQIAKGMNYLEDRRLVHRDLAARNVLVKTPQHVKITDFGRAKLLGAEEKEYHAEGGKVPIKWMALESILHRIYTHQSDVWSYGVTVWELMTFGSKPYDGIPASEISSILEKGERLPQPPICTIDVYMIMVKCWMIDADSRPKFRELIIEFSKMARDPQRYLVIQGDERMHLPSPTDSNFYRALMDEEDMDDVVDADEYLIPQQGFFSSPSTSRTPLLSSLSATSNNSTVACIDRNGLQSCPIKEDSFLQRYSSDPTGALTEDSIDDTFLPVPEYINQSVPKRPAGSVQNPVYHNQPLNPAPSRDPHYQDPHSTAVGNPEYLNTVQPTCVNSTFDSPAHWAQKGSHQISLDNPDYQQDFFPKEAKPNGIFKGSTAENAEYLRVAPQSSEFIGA
assay info: Biochemical EGFR inhibition assay (TR-FRET), L858R/T790M/C797S mutant
condition details: ATP at Km, 15 min pre-incubation, 60 min reaction; read-out: LR_TM_CS (Km ATP) IC50
quantity name: IC50
Show the value, then the unit it is measured in.

Use the examples below as a reference point.
INSERT INTO assay_data (smiles_repr, measured_result) VALUES
  ('CN(C)C1CCN(c2ccc(Nc3nc(Nc4cccc5c4N(S(C)(=O)=O)CC5)c4cc[nH]c4n3)c3c2CCO3)CC1', '1 nM'),
  ('CCN1CCN(C2CCN(c3ccc(Nc4nc(Nc5cccc6c5N(S(C)(=O)=O)CC6)c5cc[nH]c5n4)cc3F)CC2)CC1', '0.29 nM'),
  ('COc1cc(N2CCC3(CC2)CN(C)C3)c(C)cc1Nc1ncc(Br)c(Nc2cccc3c2N(S(C)(=O)=O)CC3)n1', '0.2 nM');

Now for a further compound.
Briefly, IC50 measured for "COc1cc(N2CCC(N3CCN(C)CC3)CC2)c(Cl)cc1Nc1nc(Nc2cccc3c2N(S(C)(=O)=O)CC3)c2cc[nH]c2n1" : 0.79 nM

---

target desc: BaF3-Del_TM_CS cells (Homo sapiens, UniProt P00533, T790M/C797S, cells depend on it, form not given)
assay info: Cell antiproliferation assay (CellTiter-Glo), BaF3-Del_TM_CS
Format: cell-based
condition details: 48 h treatment, read-out: BaF3-Del_TM_CS IC50
Catalogue of compounds with associated log10 of GI50
Heads up, the numbers here are log10 of GI50 in nM units.

Use the examples below as a reference point.
INSERT INTO measurements (smiles_repr, measured_result) VALUES
  ('COc1cc(N2CCC(N3CCN(C)CC3)CC2)ccc1Nc1ncc(C)c(Nc2cccc3c2N(S(C)(=O)=O)CC3)n1', 1.90),
  ('CCc1cc(Nc2nc(Nc3cccc4c3N(S(C)(=O)=O)CC4)c3cc[nH]c3n2)c(OC)cc1N1CCC(N2CCN(C)CC2)CC1', 1.04),
  ('CN(C)C1CCN(c2ccc(Nc3ncc(Cl)c(Nc4cccc5c4N(S(C)(=O)=O)CC5)n3)c3c2CCO3)CC1', 1.09),
  ('COc1cc(N2CCC(N3CCN(C)CC3)CC2)ccc1Nc1ncc(Cl)c(Nc2ccc(C)c3c2N(S(C)(=O)=O)CC3)n1', 1.08),
  ('CNS(=O)(=O)N1CCc2cccc(Nc3nc(Nc4ccc(N5CCC(N6CCN(C)CC6)CC5)cc4OC)ncc3Cl)c21', 0.94);

Briefly, log10 of GI50 measured for "CCOc1cc(N2CCC(N3CCN(C)CC3)CC2)c(C)cc1Nc1nc(Nc2cccc3c2N(S(C)(=O)=O)CC3)c2cc[nH]c2n1" : 1.73

Briefly, log10 of GI50 measured for "COc1cc(N2CCC(N3CCN(C)CC3)CC2)ccc1Nc1ncc(Cl)c(Nc2cccc3c2N(S(=O)(=O)N(C)C)CC3)n1" : 2.20

---

Catalogue of compounds with associated IC50
target desc: EGFR(Dell9_T790M_C797S) (aa 669-1210, in house) (Homo sapiens, UniProt P00533, T790M/C797S, form not given)
Sequence (P00533 with tags, fused parts or gaps DEL746-750/T790M/C797S, form open): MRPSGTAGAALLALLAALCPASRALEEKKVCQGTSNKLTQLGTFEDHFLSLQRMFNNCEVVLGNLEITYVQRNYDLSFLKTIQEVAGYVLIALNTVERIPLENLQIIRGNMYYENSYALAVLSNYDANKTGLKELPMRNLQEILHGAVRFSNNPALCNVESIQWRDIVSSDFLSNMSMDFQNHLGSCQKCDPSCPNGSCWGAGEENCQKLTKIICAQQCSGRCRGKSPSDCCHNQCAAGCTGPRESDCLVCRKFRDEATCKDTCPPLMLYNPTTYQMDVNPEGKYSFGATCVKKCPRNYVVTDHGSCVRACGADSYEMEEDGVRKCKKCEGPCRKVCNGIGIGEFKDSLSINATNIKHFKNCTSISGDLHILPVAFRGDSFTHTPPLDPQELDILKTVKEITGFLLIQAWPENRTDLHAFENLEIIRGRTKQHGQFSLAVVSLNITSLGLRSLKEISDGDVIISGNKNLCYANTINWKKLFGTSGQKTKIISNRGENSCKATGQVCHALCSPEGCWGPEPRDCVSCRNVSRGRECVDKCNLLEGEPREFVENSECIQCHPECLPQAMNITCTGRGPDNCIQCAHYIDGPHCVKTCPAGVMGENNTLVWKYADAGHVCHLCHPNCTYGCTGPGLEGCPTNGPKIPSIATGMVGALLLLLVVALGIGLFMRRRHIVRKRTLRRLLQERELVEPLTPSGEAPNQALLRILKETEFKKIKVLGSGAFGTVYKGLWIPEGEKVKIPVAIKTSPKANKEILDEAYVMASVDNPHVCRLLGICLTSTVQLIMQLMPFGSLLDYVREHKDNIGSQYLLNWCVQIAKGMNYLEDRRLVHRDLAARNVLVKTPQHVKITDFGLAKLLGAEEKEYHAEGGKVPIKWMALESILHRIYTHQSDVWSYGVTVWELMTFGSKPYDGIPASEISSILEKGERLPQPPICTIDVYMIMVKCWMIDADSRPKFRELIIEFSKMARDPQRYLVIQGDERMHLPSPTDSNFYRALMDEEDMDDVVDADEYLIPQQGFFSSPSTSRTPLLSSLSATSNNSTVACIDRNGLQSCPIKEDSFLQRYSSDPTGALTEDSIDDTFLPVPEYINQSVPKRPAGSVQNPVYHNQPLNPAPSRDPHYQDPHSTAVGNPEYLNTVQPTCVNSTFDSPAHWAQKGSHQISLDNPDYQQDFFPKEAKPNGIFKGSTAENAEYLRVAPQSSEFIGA
assay info: Biochemical EGFR inhibition assay (TR-FRET), Del19/T790M/C797S mutant
condition details: ATP at Km, 15 min pre-incubation, 60 min reaction; read-out: Del_TM_CS (Km ATP) IC50
Provide the reading as a plain figure in nM.

Use the examples below as a reference point.
INSERT INTO results (compound, quantity_name, measured_result) VALUES
  ('COc1cc(N2CCC(N3CCN(C)CC3)CC2)ccc1Nc1ncc(Cl)c(Nc2cccc3c2N(S(C)(=O)=O)CCC3)n1 [Example 10]', 'IC50', 0.39),
  ('COc1cc(N2C[C@@H](C)N(C)[C@@H](C)C2)c(C)cc1Nc1ncc(Br)c(Nc2cccc3c2N(S(C)(=O)=O)CC3)n1 [Example 42]', 'IC50', 0.3),
  ('CNC(=O)N1CCc2cccc(Nc3nc(Nc4ccc(N5CCC(N6CCN(C)CC6)CC5)cc4OC)ncc3Cl)c21 [Example 16]', 'IC50', 87),
  ('CN1CCN(C2CCN(c3ccc(Nc4ncc(Br)c(Nc5cccc6c5N(S(C)(=O)=O)CC6)n4)c4c3CC(C)(C)O4)CC2)CC1 [Example 57]', 'IC50', 8.79),
  ('COc1cc(N2CCC(N3CCN(C)CC3)CC2)ccc1Nc1nc(Nc2cccc3c2N(S(C)(=O)=O)CC3)c2nc[nH]c2n1 [Example 72]', 'IC50', 1.3),
  ('COc1cc(-c2cnn(CCN(C)C)c2)ccc1Nc1nc(Nc2cccc3c2N(S(C)(=O)=O)CC3)c2cc[nH]c2n1 [Example 113]', 'IC50', 18.5);

Now for a further compound.
Briefly, IC50 measured for CCN1CCN(C2CCN(c3ccc(Nc4nc(Nc5cccc6c5N(S(C)(=O)=O)CC6)c5cc[nH]c5n4)cc3F)CC2)CC1 [Example 77] : 0.33

---

target desc: BaF3-LR_TM_CS cells (Homo sapiens, UniProt P00533, T790M/C797S/L858R, cells depend on it)
Sequence (P00533 whole entry T790M/C797S/L858R): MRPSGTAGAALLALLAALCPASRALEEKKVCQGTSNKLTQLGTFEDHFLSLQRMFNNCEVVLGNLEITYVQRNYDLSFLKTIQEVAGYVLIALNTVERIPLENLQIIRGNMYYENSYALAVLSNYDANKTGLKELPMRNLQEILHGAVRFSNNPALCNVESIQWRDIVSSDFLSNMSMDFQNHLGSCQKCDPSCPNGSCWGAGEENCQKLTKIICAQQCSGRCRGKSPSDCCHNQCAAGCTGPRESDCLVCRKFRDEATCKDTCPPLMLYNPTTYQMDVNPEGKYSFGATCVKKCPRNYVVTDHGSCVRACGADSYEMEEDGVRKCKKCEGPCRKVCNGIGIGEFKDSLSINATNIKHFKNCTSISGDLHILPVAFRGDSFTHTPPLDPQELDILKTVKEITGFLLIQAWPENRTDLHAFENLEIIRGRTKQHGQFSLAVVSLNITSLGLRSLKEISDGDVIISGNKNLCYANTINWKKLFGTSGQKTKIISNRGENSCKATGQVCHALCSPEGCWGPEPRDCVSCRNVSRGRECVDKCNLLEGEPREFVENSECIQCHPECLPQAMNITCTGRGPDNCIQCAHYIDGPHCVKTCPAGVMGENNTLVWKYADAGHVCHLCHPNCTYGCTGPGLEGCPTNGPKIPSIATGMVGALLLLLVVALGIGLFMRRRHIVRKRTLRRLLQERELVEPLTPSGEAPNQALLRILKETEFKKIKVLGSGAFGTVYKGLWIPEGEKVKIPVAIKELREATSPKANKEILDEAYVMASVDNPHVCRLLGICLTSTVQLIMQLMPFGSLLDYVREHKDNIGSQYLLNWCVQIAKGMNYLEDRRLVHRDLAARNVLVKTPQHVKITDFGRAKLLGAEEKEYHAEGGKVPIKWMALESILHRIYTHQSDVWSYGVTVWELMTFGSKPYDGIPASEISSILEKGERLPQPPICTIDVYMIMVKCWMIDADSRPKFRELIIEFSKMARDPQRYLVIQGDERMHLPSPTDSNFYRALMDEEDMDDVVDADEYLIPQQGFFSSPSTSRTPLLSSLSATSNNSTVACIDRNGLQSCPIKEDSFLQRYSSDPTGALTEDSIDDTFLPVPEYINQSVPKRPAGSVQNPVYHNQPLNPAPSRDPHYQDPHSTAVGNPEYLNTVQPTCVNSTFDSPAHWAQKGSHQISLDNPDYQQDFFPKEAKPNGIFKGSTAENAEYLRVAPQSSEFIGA
assay info: Cell antiproliferation assay (CellTiter-Glo), BaF3-LR_TM_CS
Format: cell-based
condition details: 48 h treatment, read-out: BaF3-LR_TM_CS IC50
Catalogue of molecules with associated GI50
Provide the reading as a plain figure in nM.

Use the examples below as a reference point.
INSERT INTO assay_data (smiles_repr, measured_result) VALUES
  ('CN1CCN(c2ccc(Nc3nc(Nc4cccc5c4N(S(C)(=O)=O)CC5)c4cc[nH]c4n3)cc2F)CC1', 78),
  ('COc1cc(N2CCC(N3CCN(C)CC3)CC2)ccc1Nc1ncc(Cl)c(Nc2cccc3c2N(C(=O)N(C)C)CC3)n1', 2030),
  ('COc1cc(N2CCC(N3CCN(C)CC3)CC2)ccc1Nc1ncc(Cl)c(Nc2cccc3c2N(S(=O)(=O)C(C)(C)C)CC3)n1', 428),
  ('COc1cc(N2CCC(N3CCN(C)CC3)CC2)ccc1Nc1ncc(C(F)(F)F)c(Nc2cccc3c2N(S(C)(=O)=O)CC3)n1', 109),
  ('CNS(=O)(=O)N1CCc2cccc(Nc3nc(Nc4ccc(N5CCC(N6CCN(C)CC6)CC5)cc4OC)ncc3Cl)c21', 14.3);

I looked up "COc1cc(N2C[C@H]3CN(C)C[C@H]3C2)c(C)cc1Nc1nc(Nc2cccc3c2N(S(C)(=O)=O)CC3)c2cc[nH]c2n1" and its GI50 for BaF3-LR_TM_CS cells (Homo sapiens, UniProt P00533, T790M/C797S/L858R, cells depend on it) was 314

I looked up "CCc1cc(Nc2nc(Nc3cccc4c3N(S(C)(=O)=O)CC4)c3cc[nH]c3n2)c(OC)cc1N1CCC(N2CCN(C)CC2)CC1" and its GI50 for BaF3-LR_TM_CS cells (Homo sapiens, UniProt P00533, T790M/C797S/L858R, cells depend on it) was 84.8

I looked up "COc1cc(N2CCC(N3CCN(C)CC3)CC2)ccc1Nc1ncc(Cl)c(Nc2cc(C)cc3c2N(S(C)(=O)=O)CC3)n1" and its GI50 for BaF3-LR_TM_CS cells (Homo sapiens, UniProt P00533, T790M/C797S/L858R, cells depend on it) was 1290

---

target desc: BaF3-WT cells (Homo sapiens)
Sequence (P00533 whole entry, change not shown): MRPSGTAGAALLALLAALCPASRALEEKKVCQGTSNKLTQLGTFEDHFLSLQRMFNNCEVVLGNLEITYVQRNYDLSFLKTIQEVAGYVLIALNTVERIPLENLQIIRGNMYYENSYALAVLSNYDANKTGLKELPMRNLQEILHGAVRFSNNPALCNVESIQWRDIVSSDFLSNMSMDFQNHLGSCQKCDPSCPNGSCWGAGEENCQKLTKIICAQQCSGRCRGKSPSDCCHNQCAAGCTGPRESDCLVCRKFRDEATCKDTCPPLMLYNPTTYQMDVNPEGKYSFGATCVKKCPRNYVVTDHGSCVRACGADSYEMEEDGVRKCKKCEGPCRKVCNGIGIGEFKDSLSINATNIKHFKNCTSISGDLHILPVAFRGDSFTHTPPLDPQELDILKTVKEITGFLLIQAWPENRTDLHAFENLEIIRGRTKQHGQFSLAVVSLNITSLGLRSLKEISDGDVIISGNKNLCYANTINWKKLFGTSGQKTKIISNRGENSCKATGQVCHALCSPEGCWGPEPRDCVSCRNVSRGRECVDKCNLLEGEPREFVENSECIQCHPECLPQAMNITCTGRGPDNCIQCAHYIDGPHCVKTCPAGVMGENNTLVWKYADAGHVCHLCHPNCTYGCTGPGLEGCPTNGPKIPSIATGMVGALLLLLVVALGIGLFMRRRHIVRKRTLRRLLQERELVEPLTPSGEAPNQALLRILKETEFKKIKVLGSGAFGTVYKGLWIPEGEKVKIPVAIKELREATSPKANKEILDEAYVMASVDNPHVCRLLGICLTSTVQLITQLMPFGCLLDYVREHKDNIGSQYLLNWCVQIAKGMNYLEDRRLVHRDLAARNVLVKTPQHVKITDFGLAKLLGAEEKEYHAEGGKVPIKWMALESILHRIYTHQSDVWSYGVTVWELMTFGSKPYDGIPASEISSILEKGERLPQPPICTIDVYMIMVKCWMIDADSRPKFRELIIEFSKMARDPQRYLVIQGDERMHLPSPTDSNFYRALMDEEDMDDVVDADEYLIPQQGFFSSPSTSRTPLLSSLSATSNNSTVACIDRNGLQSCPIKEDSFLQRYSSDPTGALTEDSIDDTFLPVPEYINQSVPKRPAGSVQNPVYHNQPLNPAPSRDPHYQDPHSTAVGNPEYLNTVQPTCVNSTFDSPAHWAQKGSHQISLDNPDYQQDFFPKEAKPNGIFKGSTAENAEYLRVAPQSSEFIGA
assay info: Cell antiproliferation assay (CellTiter-Glo), BaF3-WT
Assay type: cell-based
condition details: 48 h treatment, read-out: BaF3-WT IC50
Consider the cut-off 600 nM. If the recorded GI50 is strictly smaller, the label is YES; if not, the label is NO.

Task item: Consider "COc1cc(N2CCC(N3CCN(C)CC3)CC2)c(C)cc1Nc1ncc(Br)c(Nc2cccc3c2N(S(C)(=O)=O)CC3)n1" . Does its GI50 lie strictly below 600 nM?
Reply: YES

Task item: Consider "COc1cc(N2CCC(N3CCN(C)CC3)CC2)ccc1Nc1ncc(Cl)c(Nc2cccc3c2N(S(=O)(=O)N(C)C)CC3)n1" . Does its GI50 lie strictly below 600 nM?
Reply: NO

Task item: Consider "COc1cc(N2CCC(N3CCN(C)CC3)CC2)ccc1Nc1nc(Nc2cccc3c2N(S(C)(=O)=O)CC3)c2nc[nH]c2n1" . Does its GI50 lie strictly below 600 nM?
Reply: NO

Task item: Consider "COc1cc(N2CCC(N3CCN(C)CC3)CC2)ccc1Nc1ncc(F)c(Nc2cccc3c2N(S(C)(=O)=O)CC3)n1" . Does its GI50 lie strictly below 600 nM?
Reply: YES

Task item: Consider "CNC(=O)N1CCc2cccc(Nc3nc(Nc4ccc(N5CCC(N6CCN(C)CC6)CC5)cc4OC)ncc3Cl)c21" . Does its GI50 lie strictly below 600 nM?
Reply: NO

Task item: Consider "COc1cc(N2CCC(N3CCN(C)CC3)CC2)ccc1Nc1ncc(Cl)c(Nc2cc(C)cc3c2N(S(C)(=O)=O)CC3)n1" . Does its GI50 lie strictly below 600 nM?
Reply: NO

Task item: Consider "CN1CCN(c2ccc(Nc3nc(Nc4cccc5c4N(S(C)(=O)=O)CC5)c4cc[nH]c4n3)cc2F)CC1" . Does its GI50 lie strictly below 600 nM?
Reply: YES
